Multi-source literature compilation: pIC50 on MAP4K4 (Homo sapiens, UniProt O95819).
Sequence (O95819 whole entry): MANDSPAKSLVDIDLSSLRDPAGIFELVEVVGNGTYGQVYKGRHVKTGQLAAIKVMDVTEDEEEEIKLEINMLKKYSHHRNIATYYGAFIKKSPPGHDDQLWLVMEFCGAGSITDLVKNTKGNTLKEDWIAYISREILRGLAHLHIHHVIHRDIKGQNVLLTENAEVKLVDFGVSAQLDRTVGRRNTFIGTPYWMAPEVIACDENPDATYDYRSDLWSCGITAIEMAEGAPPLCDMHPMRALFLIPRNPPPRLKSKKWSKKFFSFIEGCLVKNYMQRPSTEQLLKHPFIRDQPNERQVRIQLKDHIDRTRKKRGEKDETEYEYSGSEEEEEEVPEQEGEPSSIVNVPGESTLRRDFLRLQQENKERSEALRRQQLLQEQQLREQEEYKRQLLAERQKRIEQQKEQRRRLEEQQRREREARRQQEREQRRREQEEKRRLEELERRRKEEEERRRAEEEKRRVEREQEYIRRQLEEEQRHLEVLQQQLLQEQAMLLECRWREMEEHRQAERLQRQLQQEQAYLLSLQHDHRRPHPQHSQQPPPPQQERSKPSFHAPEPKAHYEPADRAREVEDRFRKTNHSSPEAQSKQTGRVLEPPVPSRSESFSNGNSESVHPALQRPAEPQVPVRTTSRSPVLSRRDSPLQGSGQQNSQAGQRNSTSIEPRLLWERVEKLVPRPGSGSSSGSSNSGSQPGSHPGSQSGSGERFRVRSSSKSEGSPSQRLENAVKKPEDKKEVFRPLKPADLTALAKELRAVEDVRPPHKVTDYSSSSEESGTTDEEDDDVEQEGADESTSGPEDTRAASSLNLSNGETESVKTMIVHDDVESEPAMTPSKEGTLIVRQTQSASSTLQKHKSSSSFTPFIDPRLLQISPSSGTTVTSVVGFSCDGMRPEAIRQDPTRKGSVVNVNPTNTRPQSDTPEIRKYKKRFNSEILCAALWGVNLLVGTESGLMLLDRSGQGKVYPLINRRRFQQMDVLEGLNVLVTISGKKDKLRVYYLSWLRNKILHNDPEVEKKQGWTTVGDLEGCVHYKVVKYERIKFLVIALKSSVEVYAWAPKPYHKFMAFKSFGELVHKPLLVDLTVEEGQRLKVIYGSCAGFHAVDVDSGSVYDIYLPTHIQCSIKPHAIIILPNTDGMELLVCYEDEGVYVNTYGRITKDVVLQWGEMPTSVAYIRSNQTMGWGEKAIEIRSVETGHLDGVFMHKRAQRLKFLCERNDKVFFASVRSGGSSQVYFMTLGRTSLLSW
pIC50: −log10 of the molar value.

Guide cases for pIC50, answers given:
> print(dat)
                              smiles.string  measured.result
1  O=C(c1c(F)ccc(NS(=O)(=O)c2c(F)cccc2F)c1F)c1c[nH]c2nccc(Cl)c12           ≥ 5.00
2  O=C(c1c(F)ccc(NS(=O)(=O)c2ncn[nH]2)c1F)c1c[nH]c2nccc(Cl)c12           ≥ 5.00
3  COc1ccc(NC(=O)c2ccc(-c3c(-c4ccc(F)cc4)ncn3C3CCCCC3)o2)cc1OC             6.98
4  O=C(c1cccc(NS(=O)(=O)C2CCCCC2)c1)c1c[nH]c2ncc(Cl)cc12           ≥ 5.00
5  COc1cnc2[nH]cc(C(=O)c3cccc(NS(=O)(=O)C4CCCC4)c3)c2c1           ≥ 5.00
6  COc1ccc(NC(=O)c2ccc(-c3c(-c4ccc(F)cc4)ncn3C3CCCCC3)o2)cc1             6.97
7  Cc1cnc2[nH]cc(C(=O)c3c(F)ccc(NS(=O)(=O)N(C)C)c3F)c2c1           ≥ 5.00

From here, focus on the item given below.
INPUT: Short answer please: pIC50, MAP4K4 (Homo sapiens, UniProt O95819), entry `CN1CCN(c2ccc(NC(=O)c3c[nH]c(-c4c(-c5ccc(F)cc5)ncn4CC(C)(C)C)n3)cc2)CC1`
OUTPUT: < 6.92

----------
Literature-derived IC50 for MAP4K4 (Homo sapiens) follows.

Here's what some known entries look like.
> print(dat)
                                   molecule  measured.result
1  CCC(C)S(=O)(=O)Nc1ccc(F)c(C(=O)c2c[nH]c3ncc(OC)cc23)c1F (centres unmarked)          ≤ 10 µM
2  O=C(Nc1cc[nH]c(=O)c1)c1ccc(-c2c(-c3ccc(F)cc3)ncn2C2COCC2(F)F)o1 (centres unmarked)         0.231 µM

INPUT: Give the measured IC50 of `CN1CCN(c2ccc(NC(=O)c3c[nH]c(-c4c(-c5ccc(F)cc5)ncn4C)n3)cc2)CC1` .
OUTPUT: > 0.12 µM

INPUT: Query (molecule): `O=C(c1cccc(OC(F)F)c1)c1c[nH]c2ncc(-c3cccnc3)cc12` ; field requested: IC50
OUTPUT: ≤ 10 µM

INPUT: Form field: reported IC50 of `Cn1cnc(-c2ccc(F)cc2)c1-c1ccc(C(=O)Nc2ccncc2F)o1`
OUTPUT: > 1 µM

INPUT: Query: IC50; subject: `CCCCS(=O)(=O)Nc1ccc(F)c(C(=O)c2c[nH]c3ncc(-c4cnn(C)c4)cc23)c1Cl`
OUTPUT: ≤ 10 µM

INPUT: So what's the measured IC50 for this one? `O=C(O)CCc1cccc(-c2cnc3[nH]cc(C(=O)c4cccc(NS(=O)(=O)C5CCCCC5)c4)c3c2)c1`
OUTPUT: ≤ 10 µM

INPUT: # IC50 lookup, item `NC(=O)c1cccc(-c2cnc3[nH]cc(C(=O)c4cccc(NS(=O)(=O)c5cccnc5)c4)c3c2)c1`
OUTPUT: ≤ 10 µM

----------
pIC50: −log10 of the molar value.
Reported pIC50 against MAP4K4 (Homo sapiens, UniProt O95819), gathered from multiple publications, appears below.

Known results for compounds:
> print(dat)
                                   compound                                 target  measured.result
1  COc1cnccc1NC(=O)c1ccc(-c2c(-c3ccc(F)cc3)ncn2C2CCOC2)o1 (centres unmarked)  MAP4K4 (Homo sapiens, UniProt O95819)           > 8.00
2  CC1CN(c2ccc(NC(=O)c3c[nH]c(-c4c(-c5ccc(F)cc5)ncn4CC(F)(F)F)n3)cc2)CC(C)N1C (centres unmarked)  MAP4K4 (Homo sapiens, UniProt O95819)     6.92 to 7.92
3  O=C(Nc1ccc(Cl)cc1)c1ccc(-c2c(-c3ccc(F)cc3)ncn2C2CCCC2)o1  MAP4K4 (Homo sapiens, UniProt O95819)             6.94
4  O=C(Nc1ccc(F)c(F)c1)c1ccc(-c2c(-c3ccc(F)cc3)ncn2C2CCCCC2)o1  MAP4K4 (Homo sapiens, UniProt O95819)             6.37
5  O=C(Nc1ccccc1F)c1ccc(-c2c(-c3ccc(F)cc3)ncn2CC2CCOC2)o1 (centres unmarked)  MAP4K4 (Homo sapiens, UniProt O95819)             6.94

INPUT: Request the reported pIC50 associated with `O=C(c1c(F)ccc(NS(=O)(=O)c2ccccc2)c1F)c1c[nH]c2nccc(Cl)c12`
OUTPUT: ≥ 5.00

INPUT: Tell me the measured pIC50 of `CS(=O)(=O)Nc1ccc(F)c(C(=O)c2c[nH]c3ncc(-c4cccnc4)cc23)c1` , please.
OUTPUT: ≥ 5.00
